Sourced from patent US12037395

Each entry below carries its recorded Kd.
- EXPERIMENTAL_TARGET: T1, recombinant human PD-1-his (Sino biological, #10377-H08H) (human, UniProt Q15116 25-167)
- T1 construct: Bought protein; also called Human PD-1-his protein; not shown: his tag
- T1 sequence (Q15116 25-167 limits assumed): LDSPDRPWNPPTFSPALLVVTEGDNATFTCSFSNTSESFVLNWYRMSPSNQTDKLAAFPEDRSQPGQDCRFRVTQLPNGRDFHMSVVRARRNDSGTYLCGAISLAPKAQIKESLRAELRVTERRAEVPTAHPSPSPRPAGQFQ
- ASSAY_SUMMARY: SPR (Biacore T200), antibody captured, antigen flowed
Report the figure in nM without appending any unit label.

BINDER | Kd, nM
mouse anti-PD-1 monoclonal antibody C1F4 (antibody, mouse IgG1, kappa, V domains shown, Purified from hybridoma; Constant regions tied only generically to 'mouse antibodies') VH: QVQLQQSGAELVRPGVSVKISCKGSGYKFTDYAMHWVRQSHAKSLEWIGIISTYSGDVSFNQNFKGKATMTVDKSSSTAYMELARLTSEDSAIYYCSRLGITAGFAYWGQGTLVTVSA VL: DIVMTQSQKFMSTSVGDRVTITCKASQNVRTAVAWYQQKPGQSPKALIYLASNRHTGVPDRFTGSGSGTDFTLTISNVQSKDLADYFCLQHWNYPYTFGGGTKLEIKR | 2.3

Indicate its recorded Kd; the binder in question is mouse anti-PD-1 monoclonal antibody C1F5 (antibody, mouse IgG1, kappa, V domains shown, Purified from hybridoma; Constant regions tied only generically to 'mouse antibodies') VH: EVQLVESGGGLVKPGGSLKLSCAASGFAFSSYDMSWVRQTPEKRLEWVAYITGGGSSSFYPDTVKGRFTISRDNSKNTLYLQMTSLRSEDTAMYYCASPYLSYFDYWGQGTTLTVSS VL: DIVLTQSPATLSVTPGDSVSLSCRASQSISNNLHWYQQKSHESPRLLIKYGSQSMSGIPSRFSGSGSGTDFTLVINSVETEDFGMYFCQQSNSWPLTFGAGTKLELKR 0.372

Indicate its recorded Kd; the binder in question is mouse anti-PD-1 monoclonal antibody 2G2 (antibody, mouse IgG1, kappa, V domains shown, Purified from hybridoma; Constant regions tied only generically to 'mouse antibodies'; also called Clone 2G2) VH: EVQLVESGGDLVKPGGSLKLSCTASGFTFSYYGMSWVRQTPDKRLEWVATISSGSSFTYSPDSVKGRFTISRDNAKNTLYLQMNSLKSEDTAIYYCTRREGIYDASWDYSMDYWGQGTSVTVSS VL: DVLMTQTPLSLPVSLGDQASISCRSSQSIIRSNGNTYLEWYLQKPGQSPKLLIYKVSNRFSGVPDRFSGSGSGTDFTLKISRVEADDLGLYYCFQGSHVPWTFGGGTKLEIKR 2.68
